Source of measurements: patent US20170260282A1

Molecular target: T1, Human GITR (cell surface) (human, UniProt Q9Y5U5 26-241)
T1 sequence: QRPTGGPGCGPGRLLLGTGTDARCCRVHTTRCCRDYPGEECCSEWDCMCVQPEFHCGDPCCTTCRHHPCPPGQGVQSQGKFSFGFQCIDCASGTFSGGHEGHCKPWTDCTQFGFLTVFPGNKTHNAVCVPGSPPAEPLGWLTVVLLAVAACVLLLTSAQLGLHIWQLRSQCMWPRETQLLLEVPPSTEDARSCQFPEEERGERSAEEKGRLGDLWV
Test: cell-based or functional assay
measured_metric: ADCC EC50, HEK293-hGITR target cells, NK-92 FcγRIIIa 176V/V effector cells (ng/mL)
Note: unit ng/mL is implicit; provide only the numeric part.

Short answer for TRGB31 (antibody, human IgG1, kappa, V domains shown, human IgG1/kappa) VH: EVQLVQSGAEVKKPGESLKISCKGSGYSFTSYWIGWVRQMPGKGLEWMGIIDPSDSDTRYSPSFQGQVTISADKSISTAYLQWSSLKASDTAMYYCARVFPYYGLVLDYWGQGTLVTVSS VL: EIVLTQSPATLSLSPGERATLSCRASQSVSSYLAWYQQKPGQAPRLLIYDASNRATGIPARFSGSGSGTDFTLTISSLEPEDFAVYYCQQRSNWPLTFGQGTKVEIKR : ADCC EC50, HEK293-hGITR target cells, NK-92 FcγRIIIa 176V/V effector cells was 7.6
